The entries below are paired with their reported MCC.
experimental_details: Cytotoxicity against HEL assessed as minimum concentration required to cause morphological changes
Format: cell-based
assay_conditions: human, HEL cells

Query string: Name the recorded MCC of the item Nc1nc2c(ncn2COCCO)c(=O)[nH]1 in your answer.
Result string: > 100 µg/mL

Query string: Name the recorded MCC of the item O=c1[nH]c(=O)n([C@H]2C[C@H](O)[C@@H](CO)O2)cc1/C=C/Br in your answer.
Result string: > 100 µg/mL

* * *

The entries below are paired with their reported logP.
experimental_details: Octanol-water partition coefficient, log P of the compound
Format: physicochemical
Give the value as a plain number.

Reference set (4 entries):
• Cc1ccc(/C=N/NC(=O)COc2cccc3ccccc23)cc1 = 4.49
• O=C(COc1cccc2ccccc12)N/N=C/C=C/c1ccccc1 = 4.43
• O=C(COc1cccc2ccccc12)N/N=C/c1ccc(Cl)cc1 = 4.54
• O=C(COc1cccc2ccccc12)N/N=C/c1cccc(O)c1 = 3.73

Query string: Name the recorded logP of the item COc1ccc(OC)c(/C=N/NC(=O)COc2cccc3ccccc23)c1 in your answer.
Result string: 3.51

Query string: Name the recorded logP of the item COc1ccc(/C=N/NC(=O)COc2cccc3ccccc23)cc1O in your answer.
Result string: 3.48

Query string: Name the recorded logP of the item O=C(COc1cccc2ccccc12)N/N=C/c1c[nH]c2ccccc12 in your answer.
Result string: 3.79

Query string: Name the recorded logP of the item COc1cc(/C=N/NC(=O)COc2cccc3ccccc23)cc(OC)c1OC in your answer.
Result string: 3.26

Query string: Name the recorded logP of the item COc1ccc(/C=N/NC(=O)COc2cccc3ccccc23)cc1 in your answer.
Result string: 3.77

Query string: Name the recorded logP of the item O=C(COc1cccc2ccccc12)N/N=C/c1ccc(O)cc1 in your answer.
Result string: 3.73

Query string: Name the recorded logP of the item C/C(=N\NC(=O)COc1cccc2ccccc12)c1ccc(Cl)cc1 in your answer.
Result string: 4.17

Query string: Name the recorded logP of the item O=C(COc1cccc2ccccc12)N/N=C/c1ccccc1O in your answer.
Result string: 3.73

Query string: Name the recorded logP of the item O=C(COc1cccc2ccccc12)N/N=C/c1cccc(Br)c1 in your answer.
Result string: 4.81

Query string: Name the recorded logP of the item C/C(=N\NC(=O)COc1cccc2ccccc12)c1ccc(O)cc1O in your answer.
Result string: 4.31

Query string: Name the recorded logP of the item C/C(=N\NC(=O)COc1cccc2ccccc12)c1ccccc1O in your answer.
Result string: 3.08

Query string: Name the recorded logP of the item CSc1ccc(/C=N/NC(=O)COc2cccc3ccccc23)cc1 in your answer.
Result string: 4.11

Query string: Name the recorded logP of the item O=C(COc1cccc2ccccc12)N/N=C/c1c(O)ccc2ccccc12 in your answer.
Result string: 4.74

Query string: Name the recorded logP of the item C/C(=N\NC(=O)COc1cccc2ccccc12)c1ccccc1 in your answer.
Result string: 3.65
